Reported Imax values for the following compounds.
- TARGET OF ASSAY: UniProtKB Q9Y2T6
- Sequence (Q9Y2T6 whole entry): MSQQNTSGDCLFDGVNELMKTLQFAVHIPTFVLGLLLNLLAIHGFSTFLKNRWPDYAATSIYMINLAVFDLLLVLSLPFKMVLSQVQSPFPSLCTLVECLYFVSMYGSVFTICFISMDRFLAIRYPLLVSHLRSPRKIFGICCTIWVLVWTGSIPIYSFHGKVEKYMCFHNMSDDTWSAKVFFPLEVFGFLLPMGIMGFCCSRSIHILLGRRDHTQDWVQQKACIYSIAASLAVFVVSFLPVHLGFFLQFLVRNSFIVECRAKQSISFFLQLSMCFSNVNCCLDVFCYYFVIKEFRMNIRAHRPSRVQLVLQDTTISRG
- PROTOCOL SUMMARY: Antagonist activity at recombinant human GPR55 expressed in CHO cells assessed as inhibition of lysophosphatidylinositol-induced beta-arrestin recruitment preincubated for 60 mins followed by lysophosphatidylinositol addition for 90 mins measured for 1 sec by luminescence assay
- Assay type: functional, cell-based
Response body: numeric value in %, unit text excluded.

smiles_notation=O=C1NC(=S)N/C1=C\c1cccc(OCc2ccc(Cl)cc2)c1 property=Imax value_observed=118

For the next question, use this compound.
[ask] Please give the measured Imax for this compound: O=C1NC(SCc2ccc(Cl)cc2)=N/C1=C\c1cccc(OCc2ccc(Cl)cc2)c1
[reply] 41

Values were extracted from ChEMBL document CHEMBL4152303.
